assay: Bioavailability / PK study (IV and PO); type: in vivo, mouse; conditions: male, CD1, mouse, plasma; read-out: plasma half-life (t1/2)
The entries below are paired with their reported half-life.

[
  {
    "STRUCTURE": "O=C(/C=C\\Nc1ccccc1Br)c1ccc2c(c1)OCO2",
    "half-life": "< 5 min"
  }
]

Continue with the compound presented below.
Determine its reported half-life: Cc1cccnc1Nc1nc(-c2ccccn2)cs1
< 5 min

====

experiment: Bioavailability / PK study (IV and PO); format: in vivo, mouse; settings: male, CD1, mouse, plasma, oral; 5 mg/kg dose
READOUT KIND: Cmax
Lab note: write values as number then unit, every time.

Using the record for O=C(O)c1cccc(-c2csc(Nc3ccccc3F)n2)c1 , state its measured Cmax.
100 ng/mL

====

test system: NF-κB; assay: High throughput assay for NF-κB reporter activity (luciferase, stably transfected SH-SY5Y cells); assay type: cell-based, human; conditions: Homo sapiens, SH-SY5Y, 24 h, Table 2; no unit printed (text: fold); read-out: Emax
Please note: T applies when maximal fold induction is 20 or greater, and F applies otherwise.

Take a look at these entries with their results.
[
  {
    "STRUCTURE": "Fc1ccccc1Nc1nc(-c2cccc(Cl)c2)cs1",
    "ASSAY TARGET": "NF-κB",
    "LABEL CLASS": "F"
  },
  {
    "STRUCTURE": "CC(C)(O)c1cccc(-c2csc(Nc3ccccc3F)n2)c1",
    "ASSAY TARGET": "NF-κB",
    "LABEL CLASS": "F"
  },
  {
    "STRUCTURE": "Fc1ccccc1Nc1nc(-c2cccc(C(F)(F)F)c2)cs1",
    "ASSAY TARGET": "NF-κB",
    "LABEL CLASS": "F"
  },
  {
    "STRUCTURE": "Fc1ccc(-c2csc(Nc3ccccc3F)n2)cc1F",
    "ASSAY TARGET": "NF-κB",
    "LABEL CLASS": "F"
  },
  {
    "STRUCTURE": "O=C(/C=C\\Nc1ccccc1Br)c1ccc2c(c1)OCO2",
    "ASSAY TARGET": "NF-κB",
    "LABEL CLASS": "T"
  }
]

Next:
Has Cc1cccnc1Nc1nc(-c2ccccn2)cs1 a recorded maximal fold induction greater than or equal to 20?
T

====

assay: Bioavailability / PK study (IV and PO); type: in vivo, mouse; settings: male, CD1, mouse, plasma; 1 mg/Kg IV and 5 mg/Kg po; read-out: orally bioavailable
READOUT KIND: bioavailability
Express your answer as a number followed by its unit.

Determine its reported bioavailability: O=C(O)c1cccc(-c2csc(Nc3ccccc3F)n2)c1
26%
